Tested on: mir-15a miRNA
Assay: pGL3-mir-15a sensor luciferase assay in HeLa cells
Assay type: cell-based, human
Conditions: pGL3-mir-15a sensor-expressing HeLa cells, 3 nM
In the oligonucleotide strings, read from the 5' end, every base follows the letter of its sugar. An asterisk marks phosphorothioate; unmarked linkages are phosphodiester. Other units and linkages are bracketed, terminal groups are in braces. A string of capitals states the bases alone. e = 2'-O-(2-methoxyethyl) (MOE); [5mC] = 5-methylcytosine
Answer each item with its documented Relative luciferase activity.
The response must contain the number and no unit.

Query: Form entry - test system: mir-15a miRNA; read-out: Relative luciferase activity; substance: 342673 (antisense eA*eG*eA*e[5mC]*eT*eA*eG*e[5mC]*eG*eG*eT*eA*eT*e[5mC]*eT*eT*eT*eA*eT*e[5mC]*e[5mC]*e[5mC]) [compound 342673]
Reply: 104.5

Query: Form entry - test system: mir-15a miRNA; read-out: Relative luciferase activity; substance: 327901 (antisense eT*eG*eA*eG*e[5mC]*eT*eA*e[5mC]*eA*eG*eT*eG*e[5mC]*eT*eT*e[5mC]*eA*eT*e[5mC]*eT*e[5mC]*eA) [compound 327901]
Reply: 83.6

Query: Form entry - test system: mir-15a miRNA; read-out: Relative luciferase activity; substance: 327951 (antisense e[5mC]*eA*e[5mC]*eA*eA*eA*e[5mC]*e[5mC]*eA*eT*eT*eA*eT*eG*eT*eG*e[5mC]*eT*eG*e[5mC]*eT*eA) [compound 327951]
Reply: 151.0

Query: Form entry - test system: mir-15a miRNA; read-out: Relative luciferase activity; substance: 356213 (eT*eA*eT*eA*eA*e[5mC]*eA*eT*eT*eG*eA*eT*eG*eT*eA*eA*eT*eA*eT*eG) [compound 356213]
Reply: 101.2

The origin of these recorded values is patent US8178506B2.
